Catalogue of CC50 at 24 h readings, one per entry.
- testProtocol: in vitro
- conditionSummary: rat, gh3-tre-luc cells, AC50 (uM) modified / 1000
Structures can show the parent of a compound that is named as a salt.

The cases that follow already have their CC50 at 24 h on record.
FC(F)(F)c1ccc(Cl)cc1
> 90 µM
CC(=O)OCC1=C(C(=O)O)N2C(=O)[C@@H](N)[C@H]2SC1
> 20 µM
COP(=S)(OC)Oc1ccc([N+](=O)[O-])c(C)c1
> 90 µM

For record `Oc1ccc2[nH]cc(CCCCN3CC=C(c4ccccc4)CC3)c2c1` the listed CC50 at 24 h is 7.71 µM

For record `CCCCNCCCC` the listed CC50 at 24 h is > 90 µM

For record CCCOC(C)=O [Propyl acetate] the listed CC50 at 24 h is > 90 µM

For record `Cc1cccc(NC(=S)N(C)C)c1` the listed CC50 at 24 h is > 90 µM

For record Cc1[nH]c(=O)c(C#N)cc1-c1ccc2nccn2c1 [Olprinone hydrochloride] the listed CC50 at 24 h is > 50 µM

For record CC(C(O)c1ccccc1)N(C)CCOC(c1ccccc1)c1ccccc1 (centres unmarked) the listed CC50 at 24 h is 15.1 µM

For record `Oc1ccc2ccccc2c1N=Nc1ccccc1` the listed CC50 at 24 h is > 90 µM

For record `O=C(COCCOCCOCC(=O)Nc1c(I)cc(I)c(C(=O)O)c1I)Nc1c(I)cc(I)c(C(=O)O)c1I` the listed CC50 at 24 h is > 50 µM

For record O=CNC(N1CCN(C(NC=O)C(Cl)(Cl)Cl)CC1)C(Cl)(Cl)Cl (centres unmarked) the listed CC50 at 24 h is > 90 µM

For record `CC1=CC(=O)NS(=O)(=O)O1` the listed CC50 at 24 h is > 90 µM

For record c1cc2c(c(NC3=NCCN3)c1)CCCC2 [Tramazoline tosylate] the listed CC50 at 24 h is > 50 µM

For record O=C(OCCO)c1ccccc1O [2-Hydroxyethyl salicylate] the listed CC50 at 24 h is > 50 µM
